Provenance of the data: the supplement of paper PMC9112550

- Test system: Escherichia coli TOP10
- procedure-details: shrunken log2 fold change of peptide-encoding DNA abundance (4.5 h post-induction vs induction); higher = less antimicrobial activity (less host growth inhibition)
- stated-conditions: time post-induction: 4.5 h; library: site-saturation at positions 5, 18, 19, 20
Please go through the items and note down their shrunken log2 fold change.
Note: the reply should be a number with no unit written.

Task: Bench note: what shrunken log2 fold change did RRIRERPPRLPRPRPRPYDRPRP show?
Output: 0.0251

Task: Bench note: what shrunken log2 fold change did RRIRGRPPRLPRPRPRPYPDPRP show?
Output: 0.201

Task: Bench note: what shrunken log2 fold change did RRIRKRPPRLPRPRPRPYSFPRP show?
Output: -0.119

Task: Bench note: what shrunken log2 fold change did RRIRLRPPRLPRPRPRPHWIPRP show?
Output: -0.162

Task: Bench note: what shrunken log2 fold change did RRIRMRPPRLPRPRPRPDPKPRP show?
Output: -0.000946

Task: Bench note: what shrunken log2 fold change did RRIRDRPPRLPRPRPRPEWCPRP show?
Output: 0.272

Task: Bench note: what shrunken log2 fold change did RRIRIRPPRLPRPRPRPMSMPRP show?
Output: -0.281

Task: Bench note: what shrunken log2 fold change did RRIRIRPPRLPRPRPRPQDMPRP show?
Output: -0.0502

----------
- Tested on: Escherichia coli TOP10
- procedure-details: shrunken log2 fold change of peptide-encoding DNA abundance (4.5 h post-induction vs induction); higher = less antimicrobial activity (less host growth inhibition)
- stated-conditions: time post-induction: 4.5 h; library: site-saturation at positions 5, 18, 19, 20
Please go through the items and note down their shrunken log2 fold change.

Task: Bench note: what shrunken log2 fold change did RRIRIRPPRLPRPRPRPKGFPRP show?
Output: 0.0347

Task: Bench note: what shrunken log2 fold change did RRIRRRPPRLPRPRPRPTMEPRP show?
Output: -0.0829

Task: Bench note: what shrunken log2 fold change did RRIRVRPPRLPRPRPRPVDIPRP show?
Output: 0.0216

Task: Bench note: what shrunken log2 fold change did RRIRYRPPRLPRPRPRPEHAPRP show?
Output: 0.0635

Task: Bench note: what shrunken log2 fold change did RRIRWRPPRLPRPRPRPTMNPRP show?
Output: -0.225

Task: Bench note: what shrunken log2 fold change did RRIRWRPPRLPRPRPRPTCIPRP show?
Output: 0.248

Task: Bench note: what shrunken log2 fold change did RRIRRRPPRLPRPRPRPTRHPRP show?
Output: 0.783

Task: Bench note: what shrunken log2 fold change did RRIRCRPPRLPRPRPRPHRGPRP show?
Output: 0.0133

Task: Bench note: what shrunken log2 fold change did RRIRPRPPRLPRPRPRPKHEPRP show?
Output: 0.0756

Task: Bench note: what shrunken log2 fold change did RRIRWRPPRLPRPRPRPSFNPRP show?
Output: -0.365

Task: Bench note: what shrunken log2 fold change did RRIRSRPPRLPRPRPRPEPEPRP show?
Output: 0.102

Task: Bench note: what shrunken log2 fold change did RRIRDRPPRLPRPRPRPNPAPRP show?
Output: 0.0831

Task: Bench note: what shrunken log2 fold change did RRIRSRPPRLPRPRPRPWKNPRP show?
Output: -0.0508

Task: Bench note: what shrunken log2 fold change did RRIRSRPPRLPRPRPRPQRCPRP show?
Output: -0.0342

Task: Bench note: what shrunken log2 fold change did RRIRMRPPRLPRPRPRPLSGPRP show?
Output: 0.815

----------
- Test system: Escherichia coli TOP10
- procedure-details: shrunken log2 fold change of peptide-encoding DNA abundance (4.5 h post-induction vs induction); higher = less antimicrobial activity (less host growth inhibition)
- stated-conditions: time post-induction: 4.5 h; library: site-saturation at positions 5, 18, 19, 20
Short version: shrunken log2 fold change at least 0.06 is met, less is not met.

Task: Can RRIRKRPPRLPRPRPRPWWPPRP be said to have shrunken log2 fold change at or above 0.06?
Output: not met

Task: Can RRIRCRPPRLPRPRPRPDEQPRP be said to have shrunken log2 fold change at or above 0.06?
Output: not met

Task: Can RRIRWRPPRLPRPRPRPQDKPRP be said to have shrunken log2 fold change at or above 0.06?
Output: not met

Task: Can RRIRKRPPRLPRPRPRPISIPRP be said to have shrunken log2 fold change at or above 0.06?
Output: not met

Task: Can RRIRTRPPRLPRPRPRPQPKPRP be said to have shrunken log2 fold change at or above 0.06?
Output: met

Task: Can RRIRLRPPRLPRPRPRPGMAPRP be said to have shrunken log2 fold change at or above 0.06?
Output: met

Task: Can RRIRVRPPRLPRPRPRPKCIPRP be said to have shrunken log2 fold change at or above 0.06?
Output: not met

Task: Can RRIRARPPRLPRPRPRPEAIPRP be said to have shrunken log2 fold change at or above 0.06?
Output: met

Task: Can RRIRLRPPRLPRPRPRPGRIPRP be said to have shrunken log2 fold change at or above 0.06?
Output: not met

Task: Can RRIRMRPPRLPRPRPRPVFGPRP be said to have shrunken log2 fold change at or above 0.06?
Output: met

Task: Can RRIRERPPRLPRPRPRPADIPRP be said to have shrunken log2 fold change at or above 0.06?
Output: not met

Task: Can RRIRHRPPRLPRPRPRPNPPPRP be said to have shrunken log2 fold change at or above 0.06?
Output: met

Task: Can RRIRRRPPRLPRPRPRPSATPRP be said to have shrunken log2 fold change at or above 0.06?
Output: met

Task: Can RRIRGRPPRLPRPRPRPDKHPRP be said to have shrunken log2 fold change at or above 0.06?
Output: not met

Task: Can RRIRERPPRLPRPRPRPPSHPRP be said to have shrunken log2 fold change at or above 0.06?
Output: not met

----------
- Test system: Escherichia coli TOP10
- procedure-details: shrunken log2 fold change of peptide-encoding DNA abundance (4.5 h post-induction vs induction); higher = less antimicrobial activity (less host growth inhibition)
- stated-conditions: time post-induction: 4.5 h; library: site-saturation at positions 5, 18, 19, 20
Classification field. Basis: shrunken log2 fold change. Definitions: group 1 = under -0.01, group 2 = from -0.01 up to 0.3, group 3 = 0.3 and over

Task: Assign a bin to RRIRTRPPRLPRPRPRPQFGPRP
Output: group 2

Task: Assign a bin to RRIRARPPRLPRPRPRPPQDPRP
Output: group 3

Task: Assign a bin to RRIRKRPPRLPRPRPRPPLNPRP
Output: group 3

Task: Assign a bin to RRIRWRPPRLPRPRPRPPDMPRP
Output: group 2

Task: Assign a bin to RRIRHRPPRLPRPRPRPENAPRP
Output: group 2

Task: Assign a bin to RRIRTRPPRLPRPRPRPRWEPRP
Output: group 2

Task: Assign a bin to RRIRVRPPRLPRPRPRPLTTPRP
Output: group 1

Task: Assign a bin to RRIRKRPPRLPRPRPRPCWPPRP
Output: group 2

Task: Assign a bin to RRIRFRPPRLPRPRPRPSDYPRP
Output: group 1

Task: Assign a bin to RRIRFRPPRLPRPRPRPNNYPRP
Output: group 1

Task: Assign a bin to RRIRRRPPRLPRPRPRPMPLPRP
Output: group 3

Task: Assign a bin to RRIRQRPPRLPRPRPRPCMGPRP
Output: group 1

Task: Assign a bin to RRIRRRPPRLPRPRPRPAWTPRP
Output: group 3

Task: Assign a bin to RRIRYRPPRLPRPRPRPEGLPRP
Output: group 1

Task: Assign a bin to RRIRARPPRLPRPRPRPTFKPRP
Output: group 3

----------
- Test system: Escherichia coli TOP10;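 further: peptides expressed intracellularly from a pBAD plasmid library in pooled LB shake-flask culture, induced with 0.3% L-arabinose, DNA abundance read by NGS, three biological replicates, DESeq2 with apeglm shrinkage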
- procedure-details: shrunken log2 fold change of peptide-encoding DNA abundance (4.5 h post-induction vs induction); higher = less antimicrobial activity (less host growth inhibition)
- stated-conditions: time post-induction: 4.5 h; library: site-saturation at positions 5, 18, 19, 20
observation-type: shrunken log2 fold change
Note: the reply should be a number with no unit written.

Task: Bench note: what shrunken log2 fold change did RRIRNRPPRLPRPRPRPVVMPRP show?
Output: 0.00659

Task: Bench note: what shrunken log2 fold change did RRIRDRPPRLPRPRPRPFYAPRP show?
Output: -0.439

Task: Bench note: what shrunken log2 fold change did RRIRPRPPRLPRPRPRPASIPRP show?
Output: -0.228

Task: Bench note: what shrunken log2 fold change did RRIRIRPPRLPRPRPRPPFFPRP show?
Output: 0.41

Task: Bench note: what shrunken log2 fold change did RRIRERPPRLPRPRPRPYCDPRP show?
Output: -0.0156

Task: Bench note: what shrunken log2 fold change did RRIRARPPRLPRPRPRPEICPRP show?
Output: 1.01

Task: Bench note: what shrunken log2 fold change did RRIRYRPPRLPRPRPRPAVNPRP show?
Output: 0.063

Task: Bench note: what shrunken log2 fold change did RRIRVRPPRLPRPRPRPKPCPRP show?
Output: 0.205
